TARGET OR TEST SYSTEM: Fibroblast growth factor 2 (Homo sapiens) (UniProt P09038)
Sequence (P09038 whole entry, looked up): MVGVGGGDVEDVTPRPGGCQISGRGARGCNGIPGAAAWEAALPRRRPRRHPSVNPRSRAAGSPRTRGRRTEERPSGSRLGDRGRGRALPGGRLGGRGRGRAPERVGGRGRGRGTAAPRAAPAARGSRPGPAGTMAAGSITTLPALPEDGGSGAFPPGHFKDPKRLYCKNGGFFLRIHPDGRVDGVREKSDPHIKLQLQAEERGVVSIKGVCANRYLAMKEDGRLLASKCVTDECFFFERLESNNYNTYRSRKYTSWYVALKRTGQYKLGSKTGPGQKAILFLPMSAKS
MEASUREMENT DESCRIPTION: basic fibroblast growth factor binding to printed compounds – biochemical, small-molecule microarray, 635/667 nm fluorescence, primary screen (AID 1133)
CONDITION LABEL: FGF2, fluorescence 635/667, higher = more signal
List of composite z-score values.
METRIC: composite z-score

COMPOUND	METRIC	VALUE REPORTED
COC(=O)[C@@]1(Cc2ccc(OC)cc2)[C@H]2c3cc(C(=O)N4CCCC4)n(CCn4cc([N+](=O)[O-])nc4C)c3C[C@H]2CN1C(=O)c1ccccc1	composite z-score	-0.322
O=C(N1CCOCC1)[C@@]1(Cc2ccccc2)COC(c2ccc(OCCCO)cc2)=N1	composite z-score	-0.445
O=C1C[C@]2(c3ccc([N+](=O)[O-])cc3)C(=O)N(C3CC3)c3cc(CO)ccc3[C@H]2N1C1CCCCC1	composite z-score	0.173
CCOC(=O)C1=CCC(c2cc3ccccc3[nH]2)N(CCN2CC(C(=O)OCC)=CCC2c2cc3ccccc3[nH]2)C1 (centres undefined)	composite z-score	0.0905
CN(C)CCCCNC(=O)[C@H]1C[C@H]2C(=O)NCC(=O)N2[C@H]1c1ccc(O)cc1	composite z-score	0.304
Cc1ccc(F)cc1S(=O)(=O)N[C@H]1CCN(Cc2ccc(OC(C)C)cc2)C1	composite z-score	0.157
COCCOC(=O)N1C(=O)[C@@]2(c3cc(C#CCNC(N)=O)ccc31)[C@H](C(=O)Nc1nc3ccccc3s1)[C@H]1C(=O)O[C@H](c3ccccc3)[C@H](c3ccccc3)N1[C@@H]2c1ccccc1OCCO	composite z-score	1.61
C=CCOC(=O)[C@@H]1[C@H]2C(=O)O[C@H](c3ccccc3)[C@H](c3ccccc3)N2[C@H](c2ccc(OCCOC(=O)[C@H]3C[C@H]4C(=O)N5CCC[C@H]5C(=O)N4[C@H]3c3cccc(OCCO)c3)cc2)[C@@]12C(=O)Nc1ccc(I)cc12	composite z-score	1.38
C[C@@H]1ON(c2ccccc2)[C@H](c2ccccc2)[C@H]1C(=O)O	composite z-score	0.931
CCOC(=O)C1=C[C@@H](C(C)(C)C)N(S(=O)(=O)c2ccc(C)cc2)[C@H]1c1ccc(C#N)cc1	composite z-score	0.0014
CC(C)C[C@@H]1NC(=O)[C@@H]2C[C@H](C(=O)NCCCCCCNC(=O)CS)[C@H](c3cccc(OCCO)c3)N2C1=O	composite z-score	1.71
CCOC(=O)C[C@H]1[C@H](OC(=O)c2ccccc2-c2ccccc2)[C@@H](NC(=O)C2CCCCC2)c2cc(OCCCO)ccc2N1C(=O)c1ccc2ccccc2n1	composite z-score	0.889
Cc1ccc(S[C@]2(C(=O)NCc3ccccc3)CC(=O)N(Cc3ccccc3C(F)(F)F)[C@@H]2c2ccc(CO)cc2)cc1	composite z-score	-0.574
Cc1ccc(C(C)CC(O)C2C=CC3C(=O)N(C)C(=O)C3N2Nc2ccccc2)o1 (centres undefined)	composite z-score	0.482

###

List of composite z-score values.
TARGET OR TEST SYSTEM: Calmodulin-1 (Homo sapiens)
MEASUREMENT DESCRIPTION: small molecules binding calmodulin-1 with EGTA – biochemical, small-molecule microarray, Cy5-labelled CALM1, profiling panel (AID 1111);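 note: labelled calmodulin applied in Tris saline Tween buffer holding calcium plus EGTA and DTT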
CONDITION LABEL: Cy5-CALM1 binding fluorescence, higher = more signal
METRIC: composite z-score

In [3]: df
Out[3]:
                                test_smiles  value_reported
0  COc1ccc([Si](C)(C)[C@H]2[C@H](CC(=O)N3Cc4ccccc4C[C@H]3CO)O[C@@]3(C(=O)N(C)c4ccccc43)[C@@H]2C)cc1           0.125
1  COC(=O)[C@@]1(Cc2ccc(F)cc2)[C@H]2c3cc(C(=O)N4CCCC4)n(Cc4cc(F)cc5c4OCOC5)c3C[C@H]2CN1C(=O)c1ccccc1            1.37
2  Cc1ccc(S[C@]2(C(=O)NC(C)C)CC(=O)N(C3CCCCC3)[C@@H]2c2ccc(CO)cc2I)cc1           0.679
3  COc1cc(CO)cc(I)c1O[C@H]1C=C(C(=O)NCCO)C[C@@H]2O[C@H]12            3.38
